# Test system: SW480 human colon adenocarcinoma
# experiment-notes: Tumor cell culture cytotoxicity (MTT dye reduction), SW480
# experimental-context: read-out: Tumor Cell Culture Cytotoxicity IC50 SW480; Table C, 5,6-dihydro 3-amino derivatives
observed-property: pIC50
The scale used: pIC50 is minus the common logarithm of the concentration in molar units.

Ask: Find the recorded pIC50 belonging to `C#CCN(CC#C)S(=O)(=O)c1ccc2c(c1)CCc1nc(N)[nH]c(=O)c1-2` and report it.
Result: 4.22

###

# experiment-notes: Cell culture cytotoxicity, L cells
# Assay type: cell-based
# experimental-context: mouse, L fibroblast cell line; Table D, 5,6-dihydro 3-methyl derivatives; read-out: Tumor Cell Culture Cytotoxicity IC50 Other (L)
observed-property: IC50 at 72 h (µM)
Write it as a number; the unit µM goes unstated.

Ask: Find the recorded IC50 at 72 h belonging to `Cc1nc2c(c(=O)[nH]1)-c1ccc([N+](=O)[O-])cc1CC2` and report it.
Result: 52

Ask: `Cc1nc(O)c2c(n1)CCc1ccc(I)cc1-2` , same question.
Result: 80
